Source listed as ChEMBL document CHEMBL1201862.

What GI50 was measured for each of the following?
# Tested on: OVCAR-5
# assay_overview: NCI tumour cell line growth inhibition, 48 h
Structures can show the parent of a compound that is named as a salt. Activity calls are given as the source filed them. Cut-off read from the data, not from the text of the source: active = GI50 up to about 1.1 µM and inactive = higher.

Worked examples, 3 compounds total:
>  <compound>
NC(=O)C(=O)C(c1ccccc1)S(=O)(=O)Cc1ccccc1 (stereo not given)

>  <reading>
> 100 µM (inactive)

$$$$
>  <compound>
COC(=O)c1cc2c(c3c1CC(Cc1ccccc1)C3=O)CCC2 (stereo not given)

>  <reading>
> 100 µM (inactive)

$$$$
>  <compound>
CC(C)(C)n1[nH]c(=O)n(C(C)(C)C)c1=O

>  <reading>
> 100 µM (inactive)

$$$$

Value sought for every listed compound: GI50.
1. O=C(CC1C(=O)Nc2ccccc2[S+]1[O-])Nc1cc(Cl)ccc1Cl (stereo not given)
2. CC(C)CC(NC(=O)C(COc1ccc([N+](=O)[O-])cc1)Cc1ccccc1)C(=O)Nc1ccccc1 (stereo not given)
3. O=C(O)c1cnc(-n2[nH]c3c(c2=O)CCCC3)[nH]c1=O

Return:
1. > 100 µM (inactive)
2. 40.3 µM (inactive)
3. > 100 µM (inactive)

Value sought for every listed compound: GI50.
1. Cc1ccc(C(=O)N2CCCCC2)cc1/N=N/N(C)C
2. C=C1C(=O)O[C@H]2C[C@@H]1[C@@H](O)[C@H](O)[C@@H](C)CCCC(C)=CCC[C@@]2(C)O
3. Cc1nc2ccccc2c(=O)n1NC(=O)c1ccc([N+](=O)[O-])cc1

Return:
["> 100 µM (inactive)", "19.1 µM (inactive)", "> 100 µM (inactive)"]

Value sought for every listed compound: GI50.
1. NC(=O)N/N=C(\Cc1nc2ccc(C(=O)c3ccccc3)cc2nc1O)C(=O)Nc1ccc(Br)cc1
2. CN(C)c1ccc(/C=C/c2nc3ccccc3s2)cc1
3. NCP(=O)(O)OCC(=O)O
4. CNc1ncnc(Sc2nc(N)nc3[nH]cnc23)c1[N+](=O)[O-]
5. CN(C(=O)C12C3C4C1C1C2C3C41C#N)C(C)(C)C (stereo not given)
6. CC(=O)OCC1OC(N=[N+]=[N-])C(OC(C)=O)C(OC(C)=O)C1OC1OC(COC(C)=O)C(OC(C)=O)C(OC(C)=O)C1OC(C)=O (stereo not given)

Return:
1: > 100 µM (inactive); 2: > 100 µM (inactive); 3: > 100 µM (inactive); 4: 2.25 µM (inactive); 5: > 100 µM (inactive); 6: > 100 µM (inactive)

Value sought for every listed compound: GI50.
1. C/C1=C\CC[C@@]2(C)O[C@@H]2C[C@@H]2[C@H](C/C(C)=C/CC1)OC(=O)C21CCN=N1 (stereo not given in full)
2. COc1cc2c(cc1OC)-c1cc3cc(OC)c(OC)cc3c(C)[n+]1CC2.O=C([O-])CS(=O)(=O)O
3. CC(=O)Oc1c(C)c2c(O)c3c1C1=C(OCOC1=C(C)C3=O)/C(C)=C/C(C)(O)C(O)C(C)C(O)C1C(=O)OC(C(C)C1O)C(C)(O)/C=C\C=C(C)C(=O)N2 (stereo not given)
4. CC(=O)N(C)c1ccc(Nc2cc(C)nc3ccc4nc[nH]c4c23)cc1 [ACODAZOLE HYDROCHLORIDE]
5. CC1(c2cccs2)CC(c2cccs2)=C(C#N)C(=C(C#N)C#N)N1 (stereo not given)

Return:
> 75 µM (inactive)
> 100 µM (inactive)
4.46 µM (inactive)
12.1 µM (inactive)
21.5 µM (inactive)
